tested on: HCT-116 colon; assay: NCI tumour cell line growth inhibition, 48 h
PARAMETER: TGI

// known answers, use as guide
INSERT INTO assay_data (compound, target_or_test_system, parameter, endpoint_value) VALUES
  ('COc1cc(/C=C/c2ccc(OC)c(OC)c2)oc(=O)c1', 'HCT-116 colon', 'TGI', '> 250 µM'),
  ('CC1OC(NCCNCCNC2OC(C)C(O)C(O)C2O)C(O)C(O)C1O (stereo unspecified)', 'HCT-116 colon', 'TGI', '> 100 µM'),
  ('O=C(c1ccc(Cl)cc1Cl)N1CCN(C(=O)c2ccc(Cl)cc2Cl)C1=S', 'HCT-116 colon', 'TGI', '57.5 µM'),
  ('O=C(Cn1c2ccc(Br)cc2c2nc3ccccc3nc21)NCc1ccccc1', 'HCT-116 colon', 'TGI', '> 100 µM');

IN: Please look up its TGI: COc1ccc(-c2cc(=O)c3c(O)c(O)c(OC)cc3o2)cc1O
OUT: > 100 µM

IN: Please report the recorded TGI for COC(=O)c1csc(-c2csc(CCNC(=O)OC(C)(C)C)n2)n1 .
OUT: > 100 µM

IN: May I ask what TGI has been recorded for O=C(O)CCCN1C(=O)/C(=C/C(Cl)=C/c2ccccc2)SC1=S ?
OUT: 4 µM

IN: Fill in: TGI of N=c1oc2ccc3ccccc3c2cc1-c1nc2ccccc2c(=O)[nH]1 is ___
OUT: > 100 µM

IN: Item Nc1nnc(N)n1N has what recorded TGI?
OUT: > 100 µM

IN: Bench note: what TGI did Cn1cc(-c2ccc3c4ccccc4n(C)c3c2)c2ccccc21 show?
OUT: > 100 µM

---

test system: SK-MEL-28 melanoma; assay: NCI tumour cell line growth inhibition, 48 h
This listing pairs compounds with measured TGI.

IN: Item Cc1c(C)c2cc3c(=O)c(CCl)coc3c(C)c2oc1=O has what recorded TGI?
OUT: > 100 µM

IN: Bench note: what TGI did CCC1(O)C(=O)OCc2c1cc1n(c2=O)Cc2cc3cc4c(cc3nc2-1)OCO4 (stereo not given) show?
OUT: 18.9 µM

IN: Fill in: TGI of COc1ccc(-c2cc(-c3ccc(C)cc3)n(C3OC(COC(C)=O)C(OC(C)=O)C(OC(C)=O)C3OC(C)=O)c(=S)c2C#N)cc1 (stereo not given) is ___
OUT: > 100 µM

IN: Reported TGI for CCOC(=O)NC(Nc1ccc(F)cc1F)(C(F)(F)F)C(F)(F)F : what is it?
OUT: > 100 µM

IN: # TGI lookup, item CN(C)CCNC(=O)c1cccc2c1C(=O)c1ccccc1C2=O
OUT: > 100 µM

---

tested on: CAKI-1 renal; experiment: NCI tumour cell line growth inhibition, 48 h; in the data active = GI50 below about 0.43 µM; inactive = the rest
Bench note: report the call from active, inactive

Study these solved cases before continuing.
INSERT INTO results (molecule, qualitative_label) VALUES
  ('CNC(=O)[C@H](Cc1c[nH]c2ccccc12)NC(=O)[C@@H](CC(=O)NO)CC(C)C', 'inactive'),
  ('CN(C)S(=O)(=O)c1cccc(C(=O)Nc2nc(-c3ccc(F)c(F)c3)cs2)c1', 'inactive'),
  ('O=C1/C(=C/c2ccc(F)cc2)COc2ccc(O)c(O)c21', 'inactive');

IN: For O=C(CCN1CCCC1)Nc1ccc2c(Nc3ccc(F)cc3)c3ccccc3nc2c1 , which call appears in the assay record?
OUT: inactive

IN: Would you mind telling me which call this test gave O=C(c1ccc(Cl)cc1Cl)N1CCN(C(=O)c2ccc(Cl)cc2Cl)C1=S ?
OUT: inactive

IN: I would be grateful if you could indicate the recorded call for CN(c1cccc(C(=O)O)c1)c1cc(O/N=[N+](\[O-])N(C)C)c([N+](=O)[O-])cc1[N+](=O)[O-] .
OUT: inactive

IN: Assay result, entry C[C@H]1C[C@@H](n2c(Nc3ccc(OC(F)(F)F)cc3)nc3cc(CCC(=O)O)ccc32)CC(C)(C)C1 — outcome?
OUT: inactive

IN: Hi, sorry to bother you, what did the test record for CN[C@@H](C)C(=O)N[C@H](C(=O)N1CCC[C@H]1c1nc(C(=O)c2ccc(F)cc2)cs1)C1CCCCC1 ?
OUT: inactive

IN: Kindly provide the recorded test outcome for the following molecule: CCN1C(=O)N(CC)C2C1NN=c1s/c(=C3\C(=O)Nc4ccccc43)c(=O)n12 (configuration not stated)
OUT: active
